System: 556581-035-R-J1 tumor spheroid viability, % test/control
method: Anticancer human tumor 556581-035-R-J1 patient-derived ovarian carcinoma cell line growth inhibition
test.conditions: second compound 0.003 µM; first compound 3.16 µM; hits give low values; spheroids with HUVEC and MSC
Can you tell me viability, T/C for the items I'm about to list?

Field request: viability, T/C | item: Cc1cc(C)c(CNC(=O)c2cc(-c3ccc(CN4CCOCC4)cc3)cc3c2cnn3C2CCCC2)c(=O)[nH]1 + COc1cc2c(cc1O)CCNC21CSC2c3c(OC(C)=O)c(C)c4c(c3C(COC1=O)N1C(O)C3Cc5cc(C)c(OC)c(O)c5C(C21)N3C)OCO4 0.82%

Look at this compound and give its reported viability, T/C. CC(C)n1c(=O)n(C)c2cnc3cc(F)c(-c4ccc(OCCCN5CCCCC5)nc4)cc3c21 + CC[C@@]1(O)C(=O)OCc2c1cc1n(c2=O)Cc2cc3c(CN(C)C)c(O)ccc3nc2-1 62%

Looking for the measured viability, T/C of CC(C)n1c(=O)n(C)c2cnc3cc(F)c(-c4ccc(OCCCN5CCCCC5)nc4)cc3c21 + COc1cc2c(cc1O)CCNC21CSC2c3c(OC(C)=O)c(C)c4c(c3C(COC1=O)N1C(O)C3Cc5cc(C)c(OC)c(O)c5C(C21)N3C)OCO4 , can you help? 0.42%

---

System: 556581-035-R-J1 tumor spheroid viability, % test/control
method: Anticancer human tumor 556581-035-R-J1 cell line growth inhibition;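 further: spheroids exposed to compounds for 7 days before viability read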
test.conditions: second compound 1 µM; first compound 1 µM; hits give low values; spheroids with HUVEC and MSC
Hi there, I'd appreciate the recorded viability, T/C for every entry that follows.
Field format: number, assumed %, no unit text.

Entry COc1ccc([C@@H](O)c2cc(-c3ncnc4cc(N5CCOCC5)ccc34)c(F)cc2Cl)nn1 + Cn1nnc2c(C(N)=O)ncn2c1=O has what viability, T/C? 70.2

Can you share its viability, T/C? I mean this compound: CC1COCCN1c1cc(-c2ccnn2C)c2ccnc(-c3ccn[nH]3)c2n1 (stereo unspecified) + Cn1nnc2c(C(N)=O)ncn2c1=O 43.7

Need viability, T/C, item CC(C)n1c(=O)n(C)c2cnc3cc(F)c(-c4ccc(OCCCN5CCCCC5)nc4)cc3c21 + Cn1nnc2c(C(N)=O)ncn2c1=O 106

So what's the measured viability, T/C for this one? Cc1cc(C)c(CNC(=O)c2cc(-c3ccc(CN4CCOCC4)cc3)cc3c2cnn3C2CCCC2)c(=O)[nH]1 + Cn1nnc2c(C(N)=O)ncn2c1=O 103

Return reported viability, T/C; argument: [2H]c1nc(C)nc([2H])c1-c1cc(NC[C@@H](C)c2cccc3c(C(=O)NC)ccnc23)ncn1 + Cn1nnc2c(C(N)=O)ncn2c1=O 112

Any idea what its viability, T/C is? The compound is COc1cc(C)[nH]c(=O)c1CN1CCc2c(Cl)cc(C(OC)C3COC3)c(Cl)c2C1=O (stereo unspecified) + Cn1nnc2c(C(N)=O)ncn2c1=O 109

---

For each of the molecules below, state its viability, T/C.
Tested on: 556581-035-R-J1 tumor spheroid viability, % test/control
method: Anticancer human tumor 556581-035-R-J1 cell line growth inhibition;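 further: spheroids exposed to compounds for 7 days before viability read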
test.conditions: second compound 31.6 µM; first compound 0.316 µM; hits give low values; spheroids with HUVEC and MSC
The response must be a number in % with no trailing unit.

Query: viability, T/C; subject: CC(C)n1c(=O)n(C)c2cnc3cc(F)c(-c4ccc(OCCCN5CCCCC5)nc4)cc3c21 + Cn1nnc2c(C(N)=O)ncn2c1=O 103

What does the data say about its viability, T/C? Entry: Cc1cc(C)c(CNC(=O)c2cc(-c3ccc(CN4CCOCC4)cc3)cc3c2cnn3C2CCCC2)c(=O)[nH]1 + Cn1nnc2c(C(N)=O)ncn2c1=O 116

Quick one: viability, T/C of [2H]c1nc(C)nc([2H])c1-c1cc(NC[C@@H](C)c2cccc3c(C(=O)NC)ccnc23)ncn1 + Cn1nnc2c(C(N)=O)ncn2c1=O ? 115

Fill blank: measured viability, T/C of the molecule COc1cc(C)[nH]c(=O)c1CN1CCc2c(Cl)cc(C(OC)C3COC3)c(Cl)c2C1=O (stereo unspecified) + Cn1nnc2c(C(N)=O)ncn2c1=O is ____. 110

viability, T/C lookup needed for CC1COCCN1c1cc(-c2ccnn2C)c2ccnc(-c3ccn[nH]3)c2n1 (stereo unspecified) + Cn1nnc2c(C(N)=O)ncn2c1=O , thanks. 54.6

What value of viability, T/C has been recorded for this entry: COc1ccc([C@@H](O)c2cc(-c3ncnc4cc(N5CCOCC5)ccc34)c(F)cc2Cl)nn1 + Cn1nnc2c(C(N)=O)ncn2c1=O 114
